measurement-description: HoxA9-arrested leukemia cell differentiation promoters – flow cytometry, MLPCN library, primary screen (AID 624256)
condition-notes: ER-HoxA9 myeloid progenitors, lysozyme-GFP differentiation, at 10 µM
Out of some 360,000 compounds screened, about 3,700 (1%) were called active. About 2% were inconclusive and are not listed.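 Rule for the calls: active = normalized GFP-positive differentiation at or above the plate's own cutoff, the solvent-only control mean plus 3 SD; inconclusive = no clear call, values can overlap the other calls; inactive = the rest.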 Shown is part of a subset that was picked to be rich in actives.
Mark one answer only. Choices: TRUE for active, FALSE for inactive

COc1ccc(NC(=O)[C@H](NC(=O)[C@@H]2Cc3ccccc3CN2)c2ccccc2)cc1	FALSE
O=C(NCc1ccccc1)C(c1ccc(F)cc1)N1CCN(C(=O)C2CCCO2)CC1 (stereo not given)	FALSE

Q. Outcome? CCc1ccc(NC(=O)C(=O)NNC(=O)c2cccs2)cc1
A. FALSE

Q. Item: CCCCCCCCN1C(=O)[C@H](CC(=O)NCc2cccc3ccccc23)C[C@@]2(C(=O)OC)CCCCC=C12
A. FALSE

====

measurement-description: HoxA9-arrested leukemia cell differentiation promoters – flow cytometry, MLPCN library, primary screen (AID 624256)
condition-notes: ER-HoxA9 myeloid progenitors, lysozyme-GFP differentiation, at 10 µM
Out of some 360,000 compounds screened, about 3,700 (1%) were called active. Roughly 2% stayed inconclusive and do not appear here.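 How the source made its calls: active means normalized GFP-positive differentiation at or above the plate's own cutoff, the solvent-only control mean plus 3 SD; inconclusive means no clear call, values can overlap the other calls; inactive means the rest.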 Many of the other results were omitted from the sample, so actives are more common in it than they were.
Mark one answer only. Choices: active, inactive

Cc1ccc(Cl)c(OCC(=O)N2CCc3ccccc3C2)c1	inactive
CCC(=O)c1ccc(OCC(=O)OCC(=O)N2CCc3ccccc3C2)cc1	active
Cc1cc2nc3c(=O)n(Cc4ccccc4)c(=O)[nH]c3nc2cc1N	active

Q. Outcome? CCC(C(=O)NCc1ccccc1)n1c(Cc2cc(F)cc(F)c2)nc2ccccc21 (stereo not given)
A. inactive

Q. Item: Nc1cc(=O)n(Cc2ccccc2)c(=O)n1Cc1ccccc1
A. inactive

Q. Item: Nc1nc2c(ncn2[C@@H]2O[C@H](CNS(=O)(=O)N3CCc4ccccc4C3)[C@@H](O)[C@H]2O)c(=O)[nH]1
A. inactive

Q. Item: CCCCNC(=O)C[C@@H]1C[C@@]2(C(=O)OCC)CCC=C2N(Cc2cccc3ccccc23)C1=O
A. inactive

Q. Item: CN(C(=O)COC(=O)c1ccc(Br)o1)c1c(N)n(Cc2ccccc2)c(=O)[nH]c1=O
A. inactive

Q. Item: COC(=O)C1(C(=O)OC)C[C@H](c2ccccc2)N(Cc2ccccc2OC)[C@@H]1c1ccccc1
A. inactive

Q. Item: Nc1nc2ncccn2c1-c1ccccc1
A. inactive

====

measurement-description: HoxA9-arrested leukemia cell differentiation promoters – flow cytometry, MLPCN library, primary screen (AID 624256);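 for normalized GFP-positive differentiation: cells exposed to compound for four days before flow analysis; 0% = DMSO wells and 100% = fulvestrant positive control at 5 µM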
condition-notes: ER-HoxA9 myeloid progenitors, lysozyme-GFP differentiation, at 10 µM; stronger effect = higher value
Hit rate of the full screen: of about 360,000 compounds, about 3,700 (1%) were called active. Roughly 2% stayed inconclusive and do not appear here. This excerpt belongs to a sample that is enriched for actives.
measured-endpoint: normalized GFP-positive differentiation

Record excerpt, results attached:
CCOC(=O)C1=C(CN2CCc3ccccc32)NC(=O)NC1c1cccc([N+](=O)[O-])c1 (stereo unspecified)	18.4% (active)
Cc1ccc2cccc([N+](=O)[O-])c2n1	inactive
Cc1ccc(Nc2cc(C)nc3c(C)ccc([N+](=O)[O-])c23)cc1	156% (active)
Cc1ccccc1Nc1c([N+](=O)[O-])ccc2nonc12	inactive
CCOC(=O)C1=C(CN2CCc3ccccc32)NC(=O)NC1c1cc(C)ccc1C (stereo unspecified)	inactive

Okay, next one:
Q. Data request, read-out normalized GFP-positive differentiation, for Cc1ccc(Nc2nc(N)nc(CSc3nnc(C)s3)n2)cc1
A. inactive
